Ref: patent US5622828

# assay.system: T1, secretory phospholipase A2 (sPLA2) (Homo sapiens, UniProt P14555 P14555:21-144)
# T1 sequence: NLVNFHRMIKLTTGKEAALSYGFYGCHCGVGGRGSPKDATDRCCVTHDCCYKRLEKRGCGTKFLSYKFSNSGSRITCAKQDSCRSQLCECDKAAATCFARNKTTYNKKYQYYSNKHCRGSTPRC
# experiment: filter; biphasic, Kd2 62 nM, mole fraction 0.50; TBSC, 37 C
# cond: tags: supplied by Eli Lilly
measured.attribute: Kd (nM)

* 89 (ssRNA) RNA: GGGAGCUCAGAAUAAACGCUCAAAGUCUUACGGGUAAAGCCGAGAAAGUUUCCUUCGACAUGAGGCCCGGAUCCGGC | 2.5
